- protocol details: in vivo
- experimental context: male, CD-1, mouse, po, 10 mg/kg
property name: AUC(0-t) (ng·h/mL)
Hi! Could you send only the number? It should be in ng·h/mL, unit omitted.

Look up AUC(0-t) for this compound: CC12CC3CC(C(=O)N[C@H]4CC[C@H](N)CC4)(C1)CC(c1ccccc1)(C3)C2.Cl (stereo partly shown) [Example A78] 3590

====

- protocol details: in vivo
- experimental context: male, CD-1, mouse, po, 10 mg/kg
property name: half-life (h)
Hi! Could you send only the number? It should be in h, unit omitted.

Look up half-life for this compound: CC12CC3CC(C(=O)N[C@H]4CC[C@H](N)CC4)(C1)CC(c1ccccc1)(C3)C2.Cl (stereo partly shown) 7.1
